# SYSTEM_UNDER_TEST: Neu5Ac(a2-8)Neu5Ac(a2-3)[GalNAc(b1-4)]Gal(b1-4)Glc
# EXPERIMENT_NOTES: glycan array binding signal (z-score within array); higher = stronger binding
# PROTOCOL_CONDITIONS: glycan notation: IUPAC condensed, linker removed
The sample as a whole holds a higher share of the strongest signals than the screen did.
MEASUREMENT_KIND: glycan array binding signal (z-score)
No unit in the answer, only the number.

Study these solved cases before continuing.
BINDER | DATA_VALUE
DrGRIFIN (Danio rerio), Q6DGJ1 (protein) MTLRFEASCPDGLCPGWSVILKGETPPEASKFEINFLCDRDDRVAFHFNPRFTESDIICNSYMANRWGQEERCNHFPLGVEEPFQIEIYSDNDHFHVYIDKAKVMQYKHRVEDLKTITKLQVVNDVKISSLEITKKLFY | -0.146
Clec18A (Homo sapiens) (protein) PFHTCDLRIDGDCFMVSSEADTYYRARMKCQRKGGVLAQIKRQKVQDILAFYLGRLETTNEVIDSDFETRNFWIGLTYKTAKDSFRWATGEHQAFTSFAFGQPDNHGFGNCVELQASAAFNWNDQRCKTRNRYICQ | 4.6

Request: Return the recorded glycan array binding signal (z-score) value; entry: CCL1 (Coprinopsis cinerea) (protein) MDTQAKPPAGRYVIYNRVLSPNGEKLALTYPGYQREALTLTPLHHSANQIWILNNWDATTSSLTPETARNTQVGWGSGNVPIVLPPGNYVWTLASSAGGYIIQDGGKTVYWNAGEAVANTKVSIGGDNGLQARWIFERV
Result: -0.127

Request: Return the recorded glycan array binding signal (z-score) value; entry: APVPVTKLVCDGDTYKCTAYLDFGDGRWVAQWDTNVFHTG [PhoSpL (Pholiota squarrosa)]
Result: -0.373
